Taken from patent US20120020915A1.

Target: HO-2 (rat brain) (Rattus norvegicus, UniProt P23711)
Construct: brain microsomes were used as a source of HO-2; from tissue; host or cells: brain microsomal fraction of adult male Sprague-Dawley rats
Sequence (P23711 whole entry): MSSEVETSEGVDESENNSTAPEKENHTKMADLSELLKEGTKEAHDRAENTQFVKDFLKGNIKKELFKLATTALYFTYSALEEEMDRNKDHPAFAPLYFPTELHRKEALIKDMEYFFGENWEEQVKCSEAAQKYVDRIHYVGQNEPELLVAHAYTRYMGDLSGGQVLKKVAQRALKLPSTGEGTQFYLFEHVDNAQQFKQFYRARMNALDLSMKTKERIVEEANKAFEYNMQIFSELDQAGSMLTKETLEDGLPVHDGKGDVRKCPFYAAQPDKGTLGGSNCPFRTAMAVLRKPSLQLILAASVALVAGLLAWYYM
Test: HO enzymatic activity, rat brain microsomal fraction (CO formation from methemalbumin)
Type: biochemical
Conditions: CO formation from methemalbumin, mean ± SD of replicate experiments, read-out: IC50 HO-2 (rat brain)/μM)
Structures can show the parent of a compound that is named as a salt.
PROPERTY: IC50

Task item: Reported IC50 for O=C(CCc1ccc(Cl)cc1)Cn1ccnc1 [QC-9, hydrochloride] : what is it?
Reply: 43 µM

Task item: Reported IC50 for COc1cccc(-c2nnn[nH]2)c1 : what is it?
Reply: > 100 µM

Task item: Reported IC50 for CS(=O)(=O)c1nccn1CC(=O)CCc1ccccc1 : what is it?
Reply: > 100 µM

Task item: Reported IC50 for COC(=O)c1ncn(CC(=O)CCc2ccccc2)n1 : what is it?
Reply: > 100 µM

Task item: Reported IC50 for CCC(COC(C)=O)n1ccnc1 (stereo not shown) : what is it?
Reply: > 100 µM

Task item: Reported IC50 for O=C(CCc1ccccc1)Cn1cnc2ccccc21 : what is it?
Reply: > 100 µM
